# System: Male, NIH Swiss mice
# applied_conditions: 12/dose group
measure_name: Marble-burying, minimal effective dose (milligrams per kilogram)
Field format: number, assumed milligrams per kilogram, no unit text.

Any idea what its Marble-burying, minimal effective dose is? The compound is C[C@H]1CN(c2ccc(C(F)(F)F)c3ccoc23)CCN1
10

Let us now turn to C[C@H](N)Cn1ccc2cc(F)c(Cl)cc21
0.1

Let us now turn to CNCCC(Oc1ccc(C(F)(F)F)cc1)c1ccccc1 (stereo not shown)
10

====

# System: Male, Wistar rats
# protocol_details: Schedule-induced polydipsia
# Type: in vivo, rat
# applied_conditions: given alone, acute dosing
measure_name: Effect on number of responses emitted (lever pressing for food)

>>> recorded_result("C[C@H](N)Cc1ccccc1 [D-amphetamine]")
"increased"
>>> recorded_result("C[C@H](N)Cn1ccc2cc(F)c(Cl)cc21 [Ro 60-0175]")
"significantly decreased"
>>> recorded_result("Clc1cccc(N2CCNCC2)c1 [mCPP, meta-chlorophenylpiperazine, reference compound]")
"significantly decreased"
>>> recorded_result("Cc1cc2c(cc1Cl)N(C(=O)Nc1ccc(Oc3cccnc3C)nc1)CC2 [SB242084]")
"increased"
